Listed next: entries and their corresponding MIC.
- Test system: S.aureus Smith
- run description: In vitro antibacterial activity, minimum inhibitory concentration
- Type: cell-based
- cond: Staphylococcus aureus; S.aureus Smith; read-out: Minimum Inhibitory Concentration (MIC)
metric name: MIC (µg/mL)

• CO/N=C(\C(=O)N[C@@H]1C(=O)N2C(C(=O)[O-])=C(C[n+]3ccc4c(c3)[nH]c(=O)n4C)CS[C@H]12)c1nsc(N)n1 = 3.13
• CO/N=C(\C(=O)N[C@@H]1C(=O)N2C(C(=O)[O-])=C(C[n+]3ccc4[nH]c(=NC#N)[nH]c4c3)CS[C@H]12)c1csc(N)n1 = 1.56
• CO/N=C(\C(=O)N[C@@H]1C(=O)N2C(C(=O)[O-])=C(C[n+]3ccc4[nH]c(=NC#N)[nH]c4c3)CS[C@H]12)c1nsc(N)n1 = 3.13
• CO/N=C(\C(=O)N[C@@H]1C(=O)N2C(C(=O)[O-])=C(C[n+]3ccc4c(c3)NC(=C[N+](=O)[O-])N4)CS[C@H]12)c1csc(N)n1 = 0.78
• CO/N=C(\C(=O)N[C@@H]1C(=O)N2C(C(=O)[O-])=C(C[n+]3cccc4c3CCC4)CS[C@H]12)c1csc(N)n1 [CPR, Cefpirome, reference compound] = 0.39
